Each recorded value in this set is attributed to patent US7514452B2.

Target: glucagon receptor (Rattus norvegicus, UniProt P30082)
Sequence (P30082 27-485): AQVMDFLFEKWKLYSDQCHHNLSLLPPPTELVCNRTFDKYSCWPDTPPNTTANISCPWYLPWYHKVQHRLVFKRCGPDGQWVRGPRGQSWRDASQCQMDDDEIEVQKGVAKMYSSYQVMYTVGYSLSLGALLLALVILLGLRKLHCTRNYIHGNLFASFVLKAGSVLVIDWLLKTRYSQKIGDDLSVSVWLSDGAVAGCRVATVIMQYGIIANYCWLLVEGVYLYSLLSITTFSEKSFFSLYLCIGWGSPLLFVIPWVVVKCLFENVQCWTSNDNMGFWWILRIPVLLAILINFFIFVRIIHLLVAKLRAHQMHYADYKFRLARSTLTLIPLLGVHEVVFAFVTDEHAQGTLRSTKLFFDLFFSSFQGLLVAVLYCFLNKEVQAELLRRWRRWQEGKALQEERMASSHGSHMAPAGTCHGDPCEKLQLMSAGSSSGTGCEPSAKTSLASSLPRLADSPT
Assay: Experiment for glucagon binding inhibition, rat hepatic membrane (125I-glucagon)
Conditions: male SD rat hepatic membrane, 125I-glucagon 50 pM, 25° C. for 30 minutes; read-out: Glucagon binding inhibitory activity IC50 (nM) Rat
Metric Name: IC50 (nM)

Cc1cc(C)c(C)c(COc2ccc(-c3ccoc3C(=O)NNC(=O)c3ccc(O)c([N+](=O)[O-])c3)cc2)c1C [Example 113] ... 28
Cn1ccc2cc(-c3ccoc3C(=O)NNC(=O)c3ccc(O)c([N+](=O)[O-])c3)ccc21 [Example 208] ... 290
N#Cc1cc(C(=O)NNC(=O)c2occ(COC(=O)NCCc3ccccc3)c2-c2ccccc2)ccc1O [Example 54] ... 150

I. CCOc1ccccc1Cc1cccc(-c2ccoc2C(=O)NNC(=O)c2ccc(O)c([N+](=O)[O-])c2)c1 [Example 226]
II. COc1ccc(COc2cccc(-c3ccoc3C(=O)NNC(=O)c3ccc(O)c([N+](=O)[O-])c3)c2)cc1 [Example 176]
III. CCCCCc1ccc(-c2ccoc2C(=O)NNC(=O)c2ccc(O)c([N+](=O)[O-])c2)cc1 [Example 162]
IV. COc1ccc(Cc2cccc(-c3ccoc3C(=O)NNC(=O)c3ccc(O)c([N+](=O)[O-])c3)c2)cc1 [Example 234]
Exam item: list the entries in increasing order of IC50. Write out the labels following the order that was asked for.
II, III, I, IV
(II: 6.4 nM, III: 9.6 nM, I: 21 nM, IV: 39 nM)

====

Target: glucagon receptor (Rattus norvegicus, UniProt P30082)
Test: Experiment for glucagon binding inhibition, rat hepatic membrane (125I-glucagon)
Details: male SD rat hepatic membrane, 125I-glucagon 50 pM, 25° C. for 30 minutes; read-out: Glucagon binding inhibitory activity IC50 (nM) Rat
Metric Name: IC50 (nM)

Worked cases, answers included:
O=C(NNC(=O)c1oc(Br)cc1-c1ccccc1)c1ccc(O)c([N+](=O)[O-])c1 ... 25
O=C(NNC(=O)c1occc1-c1cccc(Cc2ccccc2Cl)c1)c1ccc(O)c([N+](=O)[O-])c1 ... 11
Cc1ccc(-c2ccoc2C(=O)NNC(=O)c2ccc(O)c([N+](=O)[O-])c2)cc1C ... 90
N#Cc1cc(C(=O)NNC(=O)c2occ(COC(=O)Nc3ccccc3)c2-c2ccccc2)ccc1O ... 75

I. Cc1ccc(COc2ccc(-c3ccoc3C(=O)NNC(=O)c3ccc(O)c([N+](=O)[O-])c3)cc2)cc1
II. Cc1cc(C)c(C)c(COc2cccc(-c3ccoc3C(=O)NNC(=O)c3ccc(O)c(C#N)c3)c2)c1C
III. O=C(NNC(=O)c1occc1-c1cccc(Cc2ccccc2)c1)c1ccc(O)c([N+](=O)[O-])c1
Exam item: list the entries in increasing order of IC50. Write out the labels following the order that was asked for.
III, I, II
(III: 5.5 nM, I: 8.5 nM, II: 21 nM)

A. CS(=O)(=O)c1ccc(COc2cccc(-c3ccoc3C(=O)NNC(=O)c3ccc(O)c([N+](=O)[O-])c3)c2)cc1
B. CS(=O)(=O)Nc1ccccc1COc1cccc(-c2ccoc2C(=O)NNC(=O)c2ccc(O)c([N+](=O)[O-])c2)c1
C. CCCc1ccc(-c2ccoc2C(=O)NNC(=O)c2ccc(O)c(C(F)(F)F)c2)cc1
Rank entries according to their IC50, from the largest number down. Write out the labels following the order that was asked for.
C, A, B

====

Metric Name: melting point

Worked cases, answers included:
Cc1ccc(-c2ccoc2C(=O)NNC(=O)c2ccc(O)c(C(F)(F)F)c2)cc1 [Example 240] ... 120 to 123 °C
O=C(NNC(=O)c1occ(-c2ccccc2)c1-c1ccccc1)c1ccccn1 ... 190 to 192 °C
O=C(NNC(=O)c1occc1-c1cccc(Cc2ccccc2)c1)c1ccc(O)c([N+](=O)[O-])c1 [Example 189] ... 160 to 162 °C

Provide melting point value for the following compound: Cc1cccc(COc2cccc(-c3ccoc3C(=O)NNC(=O)c3ccc(O)c([N+](=O)[O-])c3)c2)c1 [Example 123]
144 to 145 °C

Provide melting point value for the following compound: COc1ccc(COc2cccc(-c3ccoc3C(=O)NNC(=O)c3ccc(O)c([N+](=O)[O-])c3)c2)cc1 [Example 176]
172 to 174 °C

Provide melting point value for the following compound: Cc1cc(C)c(C)c(COc2ccc(-c3ccoc3C(=O)NNC(=O)c3ccc(O)c([N+](=O)[O-])c3)cc2)c1C [Example 113]
203 to 204 °C

Provide melting point value for the following compound: CCCc1ccc(-c2ccoc2C(=O)NNC(=O)c2ccc(O)c(C(F)(F)F)c2)cc1 [Example 242]
112 to 114 °C

Provide melting point value for the following compound: Cc1ccc(-c2ccoc2C(=O)NNC(=O)c2ccc(O)c([N+](=O)[O-])c2)cc1 [Example 146]
180 to 182 °C

Provide melting point value for the following compound: CCCCCCc1cccc(-c2ccoc2C(=O)NNC(=O)c2ccc(O)c([N+](=O)[O-])c2)c1 [Example 188]
87 to 89 °C

Provide melting point value for the following compound: CC(C)CCOc1cccc(-c2ccoc2C(=O)NNC(=O)c2ccc(O)c([N+](=O)[O-])c2)c1 [Example 180]
122 to 124 °C

====

Target: glucagon receptor (Rattus norvegicus, UniProt P30082)
Assay: Experiment for glucagon binding inhibition, rat hepatic membrane (125I-glucagon)
Details: male SD rat hepatic membrane, 125I-glucagon 50 pM, 25° C. for 30 minutes; read-out: Glucagon binding inhibitory activity IC50 (nM) Rat
Metric Name: IC50 (nM)

1. CCCCCCc1ccc(-c2ccoc2C(=O)NNC(=O)c2ccc(O)c([N+](=O)[O-])c2)cc1
2. N#Cc1cc(C(=O)NNC(=O)c2occc2-c2cccc(OCc3ccncc3)c2)ccc1O
# returns the entry with the larger IC50; inputs 1 and 2 Please reply using the label of the selected record.
2
(2: 95 nM, 1: 5.9 nM)

a. O=C(NNC(=O)c1occc1-c1ccc(Cc2ccccc2)cc1)c1ccc(O)c([N+](=O)[O-])c1
b. N#Cc1cc(C(=O)NNC(=O)c2occc2-c2ccccc2OCc2ccccc2)ccc1O
# returns the entry with the larger IC50; inputs a and b Please reply using the label of the selected record.
b
(b: 200 nM, a: 3.9 nM)

====

compounds and their reported melting point

Worked cases, answers included:
Cc1ccccc1COc1cccc(-c2ccoc2C(=O)NNC(=O)c2ccc(O)c([N+](=O)[O-])c2)c1 [Example 119] ... 114 to 115 °C
N#Cc1cc(C(=O)NNC(=O)c2occc2-c2cccc(NC(=O)OCc3ccccc3)c2)ccc1O ... 179 to 181 °C
COc1ccc(C(=O)NNC(=O)c2occ(-c3ccccc3)c2-c2ccccc2)cc1Cl ... 203 to 207 °C

# input for lookup
Provide melting point value for the following compound: COc1c(Cl)cc(C(=O)NNC(=O)c2occ(-c3ccccc3)c2-c2ccccc2)cc1Cl
229 to 230 °C

====

compounds and their reported melting point

Worked cases, answers included:
O=C(NNC(=O)c1occc1-c1ccccc1)c1ccc(O)c(C(=O)O)c1 ... 250 to 251 °C
C=C(C)COc1cccc(-c2ccoc2C(=O)NNC(=O)c2ccc(O)c([N+](=O)[O-])c2)c1 [Example 197] ... 127 to 129 °C

Provide melting point value for the following compound: O=C(NNC(=O)c1occc1-c1ccccc1)c1ccc(O)c([N+](=O)[O-])c1 [Example 143]
154 to 156 °C

Provide melting point value for the following compound: C=CCOc1cccc(-c2ccoc2C(=O)NNC(=O)c2ccc(O)c([N+](=O)[O-])c2)c1 [Example 199]
126 to 131 °C

Provide melting point value for the following compound: N#Cc1cc(C(=O)NNC(=O)c2occ(-c3ccc(F)cc3)c2-c2ccc(F)cc2)ccc1O [Example 45]
243 to 245 °C

Provide melting point value for the following compound: Cn1ccc2cc(-c3ccoc3C(=O)NNC(=O)c3ccc(O)c([N+](=O)[O-])c3)ccc21 [Example 208]
185 to 187 °C

Provide melting point value for the following compound: Cc1ccccc1Cc1cccc(-c2ccoc2C(=O)NNC(=O)c2ccc(O)c([N+](=O)[O-])c2)c1 [Example 229]
135 to 138 °C

Provide melting point value for the following compound: Cc1cc(C)c(C)c(COc2cccc(-c3coc(C(=O)NNC(=O)c4ccc(O)c([N+](=O)[O-])c4)c3-c3cccc(OCc4c(C)c(C)cc(C)c4C)c3)c2)c1C
174 to 175 °C

Provide melting point value for the following compound: CCCCCCc1ccc(-c2ccoc2C(=O)NNC(=O)c2ccc(O)c([N+](=O)[O-])c2)cc1 [Example 158]
144 to 146 °C

Provide melting point value for the following compound: Cc1ccc(-c2ccoc2C(=O)NNC(=O)c2ccc(O)c(Cl)c2)cc1
240 to 242 °C

Provide melting point value for the following compound: Cc1ccccc1COc1cccc(-c2ccoc2C(=O)NNC(=O)c2ccc(O)c(C#N)c2)c1
178 to 180 °C

Provide melting point value for the following compound: COc1ccc(C(=O)NNC(=O)c2occ(-c3ccccc3)c2-c2ccccc2)c(OC)c1
240 to 242 °C
